Parameter A405: see the listing below.
# Tested target: T1, SH3 binding peptide: biotin-SGSGILAPPVPPRNTR-COOH (SMILES …)
# T1 peptide: Biotin-SGSGILAPPVPPRNTR-OH
# Test details: ELISA, GST-PDZ domain on plate, biotin-peptide/streptavidin-alkaline phosphatase complex in solution
*: point of attachment. Biotin = O=C1N[C@H]2[C@H](CS[C@H]2CCCCC(=O)*)N1
Measured endpoint: A405 (A405)

1. GST fusion of MMSC2 PDZ domain 13 (P4) (other, GST placed N-terminal as in pGEX vectors; also called PDZ domain number 13; not shown: glutathione S-transferase (GST) encoded by pGEX vectors (Pharmacia)) KSITLERGPDGLGFSIVGGYGSPHGDLPIYVKTVFAKGAASEDGRLKRGDQIIAVNGQSLEGVTHEEAVAILKRTKGTVTLMVLS
0.006
2. GST fusion of MMSC2 PDZ domain 12 (P3) (other, GST placed N-terminal as in pGEX vectors; also called PDZ domain number 12; not shown: glutathione S-transferase (GST) encoded by pGEX vectors (Pharmacia)) RTVEMKKGPTDSLGISIAGGVGSPLGDVPIFIAMMHPTGVAAQTQKLRVGDRIVTICGTSTEGMTHTQAVNLLKNASGSIEMQVVA
0.011
3. GST fusion of MMSC2 PDZ domain 10 (P1) (other, GST placed N-terminal as in pGEX vectors; also called PDZ domain number 10; not shown: glutathione S-transferase (GST) encoded by pGEX vectors (Pharmacia)) TTIEISKGRTGLGLSIVGGSDTLLGAIIIHEVYEEGAACKDGRLWAGDQILEVNGIDLRKATHDEAINVLRQTPQRVRLTLYR
0.002
4. GST fusion of MMSC2 PDZ domain 6 (P11) (other, GST placed N-terminal as in pGEX vectors; also called PDZ domain number 6; not shown: glutathione S-transferase (GST) encoded by pGEX vectors (Pharmacia)) RTINIAKGNSSLGMTVSANKDGLGMIVRSIIHGGAISRDGRIAIGDCILSINEESTISVTNAQARAMLRRHSLIGPDIKITYVP
0.017
5. GST fusion of MMSC2 PDZ domain 8 (P8) (other, GST placed N-terminal as in pGEX vectors; also called PDZ domain number 8; not shown: glutathione S-transferase (GST) encoded by pGEX vectors (Pharmacia)) HMIELEKGHSGLGLSLAGNKDRSRMSVFIVGIDPNGAAGKDGRLQIADELLEINGQILYGRSHQNASSIIKCAPSKVKIIFIR
0.008
6. GST fusion of MMSC2 PDZ domain 9 (P7) (other, GST placed N-terminal as in pGEX vectors; also called PDZ domain number 9; not shown: glutathione S-transferase (GST) encoded by pGEX vectors (Pharmacia)) AVDLSSFKNVQHLELPKDQGGLGIAISEEDTLSGVIIKSLTEHGVAATDGRLKVGDQILAVDDEIVVGYPIEKFISLLKTAKMTVKLTIHA
0.009
7. GST fusion of MMSC2 PDZ domain 11 (P2) (other, GST placed N-terminal as in pGEX vectors; also called PDZ domain number 11; not shown: glutathione S-transferase (GST) encoded by pGEX vectors (Pharmacia)) LTIELQKKPGKGLGLSIVGKRNDTGVFVSDIVKGGIADADGRLMQGDQILMVNGEDVRNATQEAVAALLKCSLGTVTLEVGR
0.009
8. GST fusion of MMSC2 PDZ domain 4 (P10) (other, GST placed N-terminal as in pGEX vectors; also called PDZ domain number 4; not shown: glutathione S-transferase (GST) encoded by pGEX vectors (Pharmacia)) HVSKFSENSGLGISLEATVGHHFIRSVLPEGPVGHSGKLFSGDELLEVNGITLLGENHQDVVNILKELPIEVTMVCCR
0.01
